Target: T1, GPC3 on the surface of hepatic cancer cell lines (SK-Hep1-GPC3 transfectant, HepG2, Huh7, Hep3B, SNU398) (human, UniProt P51654 25-554)
T1 construct: Species is not restated for the cells (hepatic cancer cell lines, or SK-Hep1 transfected with pCMV/GPC3); also called glypican 3
Assay: FACS, HepG2 cells, 1 ug antibody; lower right panel
Each entry below carries its reported Mean, FL2-H.
Keep the answer to the number alone.

Request: Reported Mean, FL2-H, binder clone GX234 (scFv, V domains shown, scFv library clone tested as culture supernatant) VH: QVQLVQSGAEVKKPGASVKVSCKASGYTFTSYGISWVRQAPGQGLEWMGWISAYNGNTNYAQKLQGRVTMTTDTSTSTAYMELRSLRSDDTAVYYCARVGLGDFWSGDYYYYYYGMDVWGQGTTVTVSS VL: SSELTQDPAVSVALGQTVRITCQGDSLRSSYASWYHQKPGQAPVLVMYGKNNRPSGIPDRFSGSSSGNTASLTITGAQAEDEADYYCHSRDSTGSHPNWVFGGGTKLTVLG : ____
Result: 12.6

Request: Reported Mean, FL2-H, binder clone GX090 (scFv, V domains shown, scFv library clone tested as culture supernatant) VH: QVQLVQSGAEVKKPGASVKVSCKASGYTFTSYGISWVRQAPGQGLEWMGWISAYNGNTNYAQKLQGRVTMTTDTSTSTAYMELRSLRSDDTAVYYCARGSSFSGFDPWGQGTLVTVSS VL: QSVLTQPPSLSAAPGQKVTISCSGSSSNIGKNHVSWYQQFPGTAPKFLIYDNHRRPSGIPDRFSGSKSGTSATLDITGLQTGDEATYYCGTWDSSLSAVVFGGGTKLTVLG : ____
Result: 3.49

// moving on: another record for Mean, FL2-H
Request: Reported Mean, FL2-H, binder clone GX099 (scFv, V domains shown, scFv library clone tested as culture supernatant) VH: EVQLVESGAEVKKPGASVKVSCKASGYTFTSYYMHWVRQAPGQGLEWMGIINPSGGSTSYAQKFQGRVTMTRDTSTSTVYMELSSLRSEDTAVYYCARYSSSPAKIDYWGQGTLVTVSS VL: QSVLTQPPSVSAAPGEKVIISCSGSSSNIGKYYVSWYQQLPGTAPKLLIYDNNKRPSGIPDRFSGSKSGTSATLGISGLQTGDEADYYCGTWDSSLNLVFGTGTKVTVLG : ____
Result: 13.2
